# ASSAY COMMENT: yeast display, Sf9 membrane polyspecificity reagent, FACS + sequencing; frameworks hold sequencing errors
MEASURED QUANTITY: polyreactivity (PSR sort gate)

>>> reading("QVQLVESGGGLVQAGGSLRLSCAASGSTFRYYAMGWYRQAPGKERELVAAITSSGGRTYYADSVKGRFTISRDNAKNTVYLQMNSLKPEDTAVYYCAAYAYYHTGDDYWGQGTQVTVSS")
"high polyreactivity"
>>> reading("QVQLVESGGGLVQAGGSLRLSCAASGRTFGYYAMGWYRQAPGKERELVAAISTRSGSTYYADSVKGRFTISRDNAKNTVYLQMNSLKPEDTAVYYCAADSYPDYDYWGQGTQVTVSS")
"low polyreactivity"
>>> reading("QVQLVESGGGLVQAGGSLRLSCAASGSTFGYYGMGWYRQAPGKETELVAAISTGGRTNYADSVKGRFTISRDNAKNTVYLQMNSLKPEDTAVYYCAADFLSPAYRPSWYRFDYWGLGTQVTVSS")
"low polyreactivity"
>>> reading("QVQLGESGGGLVQAGGSLRLSCAASGFIFPGYAMGLYRQAPGKERELVAAITGSGGSTYYADSVKGRFTISRDNAKYTVYVQMNSVKTEDTAVDYCGAYVSGYLWGYDYWGHGTQVTVSS")
"high polyreactivity"
>>> reading("QVQLVESGGGLVQAGGSLRLSCAASGRIIWINAMGWDRQAPGKERELVATITKRGGRTYYADSVKGRFTISRDNAKNTVYLQMNSLKPEDTAVYSCNTGHEARHSQYQGGVYQDMGYWGQGTQVTVSS")
"low polyreactivity"
>>> reading("QVQLVESGGGLVQAGGSLRLSCAASGRIFSDYAMGWYIQAPGKERELVAAISWGGGRTYYADSVKGRFTISRDNAKNTVYLQMNSLKPEDTAVYYCNRGTVNSWARGYWGQGTQVTVSS")
"high polyreactivity"
>>> reading("QVQLVESGGGLVQAGGSLRLSCAASGFTFRYYAMGWYRQAPGKERELVAAISRSGGSTYYADSVKGRFTISRDNAKNTVYLQMNSLKPEDTAVYYCAARSHGWTPHGYDYWGQGTQVTVSS")
"high polyreactivity"
>>> reading("QVQLVESGGGLVQAGGSLLLSCAASGSTCSYYAMGWYRQAPGKERQLVAAINRSGGSTYYADSVMGRFTISRDNAKNTVYVQMNSLKPEDTAVYSCAALRSKTVSYDRYDYWGQGTQVTVSS")
"high polyreactivity"
>>> reading("QVQLVESGGGLVQAGGSLRLSCAASGSTFWYYAMGWYRQAPGKERELVAAISRSTGSTYYADSVKGRFTISRDNAKNTVYLQMNSLKPEDTAVYYCNKDPVPSFFIPEIGYSEYDYWGQGTQVTVSS")
"low polyreactivity"
>>> reading("QVQLVESGGGLVQAGRSLRLSCAASGIIFAFYAMGWYRQAPGKERELVAAISIDGSTYYADSVKGRFTISRDNAKNTVYLQMNSLKPEDTAVYYCAAQYLNVYYWEDYWGQGTQVTVSS")
"low polyreactivity"
>>> reading("QVQLVESGGGLVQAGGSLRLSCAASGSTLLTYTMGWYRQAPGKERELVASITTSARSTYYADSVKGRFTISRDNAKNTVYLQMNSLKPEDTAVYYWGQGTQVTVSS")
"low polyreactivity"
>>> reading("QVQLVESGGGLVQAGGSLRLSCAASGIIFYLYTKGWYRQAPGKERELVAAITRGGSTYYADSVKGRFTISRDNAKKTVYLQMNSLKPEDTAVYYCAAKHGPGYRRWYDYWGQGTQVTVSS")
"high polyreactivity"
>>> reading("QVQLVESGGGLVQAGGSLRLSCAASGRTFRGYAMGWYRQAPGKERELVAAISSGGSTYYADSVKGRFTISRDNAKNTVYLQMNSLKPEDTAVYYCAVAYYPHGREGAHFQYGYDYWGQGTQVTVSS")
"low polyreactivity"
>>> reading("QVQLVESGGGLVQAGGILRLSCAASGITFIRNGMGWYRQAPGKERELVAAISDTGARTYYADSVKGSFTISRDNAKNTVYLQMNSLKPVDTAVYYCAAEVRTRYLYSFRWYDYWGQGTQVTVSS")
"low polyreactivity"
>>> reading("QVQLVESGGGLVQAGGSLRLSCAASGRTSGNNAMGWYRQAPGKERELVAAITRGGRTYYADSVKGRFTISRDNAKNTVYLQLNSLKPEDTAVYYCAARRYFYLFGYYYWGQGTQVTVSS")
"high polyreactivity"
>>> reading("QVQLVESGGGLVQAGGSLRLSCAASGSIFKYNAMGWYRQAPGKERELVAAITYSGGSTYYADSVKGRFTISRDNAKNTVYLQMNSLKPEDTAVYYCNAYRRFSAFDYWGQGTQVTVSS")
"high polyreactivity"
>>> reading("QVQLVESGGGLVQAGGSLRLSCAASGSIFRLYAMGWYRQAPGKEREFVARIRWRGGCTNYADSVKGRITISRDNAKNTVYLQMNTLKPEDTAVYYCAVKGAGGPKYDYWGHGTQVTVSS")
"high polyreactivity"
>>> reading("QVQLVESGGGLVQAGGSLRLSCAASVSIFTAYPRGWYRQAPGKERELVAAISNGGSTYYADSVKGRFTISRDNAKNTVYLQMNSLKQEDTAVYYCAADSVQFQPDDEYWGQGTQVTVSS")
"low polyreactivity"
>>> reading("QVQLVESGGGLVQAGGSLRLSCAASGTFVTYMGWYRQAPGKERELVAVISASGDSVKGRFTISRDNAKNTVYLQMNSLNPEDTAVYYCARELYRRVWHHWAYWAAYDYWGQGTQVTVSS")
"low polyreactivity"
>>> reading("QVQLVESGGALVQAGGSLRLSCAASGSTSVDYTMGWYRQAPGNDKDLVAAIDYNGDSTYYADSEKGRFTISRDNAKNTFYLQMNSLKPEDTAVYYCAADVWTLDPEVYDYWGPGTQVTVSS")
"low polyreactivity"
>>> reading("QVQLVESGGGLVQAGGSLRLSCAASGSTFYINAMGWYRQAPGKERELVAAITSGGSTNYADSVKGRFTISRDNAKNTVYLQMNSLKPEDTAVYYCAKVSYYPWRYDYWGQGTQVTVSS")
"low polyreactivity"

###

# ASSAY COMMENT: yeast display, Sf9 membrane polyspecificity reagent, FACS + sequencing; frameworks hold sequencing errors
MEASURED QUANTITY: polyreactivity (PSR sort gate)

>>> reading("QVQLVESGGGLVQAGGSLRLSCAASGFTFSTYAMGWYRQAPGKERELVAGITRRGGSTYYADSVKGRFTISRDNAKNTVYLQMNSLKPEDTAVYYCARDLLRVSSSRYNSWGQGTQVTVSS")
"high polyreactivity"
>>> reading("QVQLVESGGGLVQAGGSLRVSCAASGRIFASYAMGWYRQAPGKERELVAAISLSGGSTYYADSVKGRFTISRDNAKNTVFLQMNSLKPEDTAVYYCAAKNYRRYRDYYWGQGTQVTVSS")
"high polyreactivity"
>>> reading("QVQLVESGGGLVQAGGSLRLSCAASGSTFGQYAMGWYRQAPGKELELVAAISSGGRTNYADSVKGRFTISRDNAKNPVYLQMNSLKPEDTAVYYCAARYYFPFRRFRRMDYWGQGTQVTVSS")
"high polyreactivity"

###

# ASSAY COMMENT: yeast display, Sf9 membrane polyspecificity reagent, FACS + sequencing; frameworks hold sequencing errors
MEASURED QUANTITY: polyreactivity (PSR sort gate)

>>> reading("PVQLVESGGGLVQAGGSLRLSCAASGSIFGYYAMGWYRQAPGKERELVAAISSSGASTYYADSVKGRFTISRDNAKNTVSLQMNSLKPEDTAVSYCIAARRYPTRGGYWGQGTQVTVSS")
"high polyreactivity"
>>> reading("QVQLVESGGGLVQAGGSLRLSCAASGSTFRYNAMGWYRQAPGKERELVAAISKSGGSTYYADSVKGRFTISRDNAKNTVYLQMNSLKPEDTAVYYCATSYPYRIYRSSYDYWGQGTQVTVSS")
"high polyreactivity"
>>> reading("QVQIVESGGGLVQAGGSLRLSCAASGRTFYFYVMGWYRQAPGKERELVAAISWSGTSTYYADSVKGRFTISRDNAKNTVYLQMNSLKPEDTAVYYCNGITRYDYWGQGTQVTVSS")
"low polyreactivity"
>>> reading("LVQLVESGGGLVQAGGSLRLSCAASGAIFYQDAQGCYRQAPGKERELVAAISKNGRSTYYADSVKGRFTISRDNAKNTVYLQMNSLKPEATAVYYCAARVLKGYYWGQGTQVTVSS")
"high polyreactivity"
>>> reading("QVQLVESGGGLVQAGGSLRLSCAASGYTFGINAMGWYRQAPGNERELVAAITTGGSTNYADSVKGRFTISRDNAKNTVYLQMNSLTPEDTAVYYCNASWDGWNANYWYPGAYYYWGQGTQVTVSS")
"low polyreactivity"
>>> reading("QVQLVESGGGLVQAGGSLRLSCAASGFTFGVYAMGWYRQAPGKERELDAAISTTVGSTYYADSVKGRFTISRDNAKNTVYLQMNSLKPEDTAVYYCAAEYTGYINYYIYEYWGQGTQVTVSS")
"low polyreactivity"
>>> reading("QVQLVESGGGLVQAGGSLRLSCAASGRILASYAMGWYRQAPGKERELVAAISRSGGSTYYADSVKGRFTISRDNAKNTVYLQMNSLKPEDTAVYYCAAKYPQKTPVNSYGILDSWGQGTQVTVSS")
"high polyreactivity"
>>> reading("QVQLVESGGGLVQAGGSLRLSCAASGRTFNRYAMGRYRQAPGKERELVAVITSDGRRNYADSVKGRFTISRDKAKNTVYFQINSLKPEDTAVSYCNKRSALSFVYDFDYWGQGTQVTVSS")
"low polyreactivity"
>>> reading("QVQLVESGVCLDQAGGSLRLSCAASGRTFDYNAMGWYSQAPGKERELVAAIDSDGSTNYADSVKGRFTISRDNAKNTVYLQMNSLKPEDTAVYYCAASTLVVWKPGWQVEYGYWGQGTQVTVSS")
"low polyreactivity"
>>> reading("QVQLVESGGGLVQAGGSLRLSCAASGSIFYRNAMGWYRQAPGKERELVAAISSDGSTNYADSVKGRFTISRDNAKNTVYLQMNSLKPEDTAVYDCAGLQKRRSYWRPFYWGQGTQVTVSS")
"low polyreactivity"
>>> reading("QVQLVESGGGLVQAGGSLRLSCAASGRIFYWNAMGWYRQAPGKERELVAVITKSGGSTYYADSVKGRFTISRDNAKNTVYLQMNSLKPEDTAVYYCAKSLYVQGYYIYDWGQGTQVTVSS")
"high polyreactivity"
